Values were extracted from paper PMC8605244.

experimental system: T1, H-Ras, biotinylated, loaded with a nonhydrolyzable GTP analog (Ras-GTP) or with GDP (Ras-GDP) (UniProt P01112 1-189, biotin on the AVI-tag (attached in vivo by BirA))
T1 construct: H-Ras; One construct used in two nucleotide states; also called biotinylated-Ras; not shown: His tag, N-terminal, cleaved; AVI-tag, C-terminal, kept
T1 sequence (P01112 whole entry): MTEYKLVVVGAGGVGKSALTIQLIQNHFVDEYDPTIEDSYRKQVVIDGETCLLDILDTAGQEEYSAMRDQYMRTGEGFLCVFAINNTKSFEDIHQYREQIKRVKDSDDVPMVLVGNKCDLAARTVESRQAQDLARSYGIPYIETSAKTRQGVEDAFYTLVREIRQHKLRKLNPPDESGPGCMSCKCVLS
assay name: SPR; OpenSPR, streptavidin chip; biotinylated Ras in the GDP-bound state immobilised at 50 ug/ml; RASSF5 variants injected at 1.25-20 uM; Ras buffer (Tris 20 mM, NaCl 100 mM, MgCl2 5 mM, pH 7.5) with 0.1% Tween20 and 0.5% BSA; 30 ul/min
test parameters: both partners purified
recorded metric: Kd (nM)
Provide the reading as a plain figure in nM.

Record excerpt, results attached:
binder: RASSF5 RA domain mutant T2 (YRRLYKR) (designed binder, RASSF5 (NORE1A) RA domain, residues 205-362, with YRRLYKR at positions 218, 219, 220, 221, 234, 286, 305 (WT: KHCLFHM); The numbers follow PDB 3DDC; Selected by yeast surface display against Ras-GTP; source: E. coli BL21(DE3), pET28a, purified (Ni beads, Superdex75 SEC)) EIKQKIDSYNSREYRRLGMKLSEDGTYTGYIKVHLKLRRPVTVPAGIRPQSIYDAIKEVNPAATTDKRTSFYLPLDAIKQLKISSTTTVSEVIQGLLKKFRVVDNPQKFALFKRIHKDGQVLFQKLSIADYPLYLRLLAGPDTDVLSFVLKENETGEV
observed: 3000
//
binder: RASSF5 RA domain mutant T3 (WSRLYKR) (designed binder, RASSF5 (NORE1A) RA domain, residues 205-362, with WSRLYKR at positions 218, 219, 220, 221, 234, 286, 305 (WT: KHCLFHM); The numbers follow PDB 3DDC; Selected by yeast surface display against Ras-GTP; source: E. coli BL21(DE3), pET28a, purified (Ni beads, Superdex75 SEC)) EIKQKIDSYNSREWSRLGMKLSEDGTYTGYIKVHLKLRRPVTVPAGIRPQSIYDAIKEVNPAATTDKRTSFYLPLDAIKQLKISSTTTVSEVIQGLLKKFRVVDNPQKFALFKRIHKDGQVLFQKLSIADYPLYLRLLAGPDTDVLSFVLKENETGEV
observed: 1600
//
binder: RASSF5 RA domain mutant D2 (RTRHWKR) (designed binder, RASSF5 (NORE1A) RA domain, residues 205-362, with RTRHWKR at positions 218, 219, 220, 221, 234, 286, 305 (WT: KHCLFHM); The numbers follow PDB 3DDC; Selected by yeast surface display against Ras-GDP; source: E. coli BL21(DE3), pET28a, purified (Ni beads, Superdex75 SEC)) EIKQKIDSYNSRERTRHGMKLSEDGTYTGWIKVHLKLRRPVTVPAGIRPQSIYDAIKEVNPAATTDKRTSFYLPLDAIKQLKISSTTTVSEVIQGLLKKFRVVDNPQKFALFKRIHKDGQVLFQKLSIADYPLYLRLLAGPDTDVLSFVLKENETGEV
observed: 1600

Give me measured Kd, please, for this binder: RASSF5 RA domain mutant D3 (FRKFWHK) (designed binder, RASSF5 (NORE1A) RA domain, residues 205-362, with FRKFWHK at positions 218, 219, 220, 221, 234, 286, 305 (WT: KHCLFHM); The numbers follow PDB 3DDC; Selected by yeast surface display against Ras-GDP; source: E. coli BL21(DE3), pET28a, purified (Ni beads, Superdex75 SEC)) EIKQKIDSYNSREFRKFGMKLSEDGTYTGWIKVHLKLRRPVTVPAGIRPQSIYDAIKEVNPAATTDKRTSFYLPLDAIKQLHISSTTTVSEVIQGLLKKFKVVDNPQKFALFKRIHKDGQVLFQKLSIADYPLYLRLLAGPDTDVLSFVLKENETGEV
1600
